Here we gather IC50 data for Non-receptor tyrosine-protein kinase TYK2 (Homo sapiens, UniProt P29597) reported by several publications.

## Input Returns the measured IC50 for the input compound. Input: `CCn1cc(-c2nc(-c3cnn(C)c3)cc3nccn23)cn1`
## Output 100 to 1000 nM

## Input For the compound CN(C(=O)CC#N)C1CCN(c2nccc(-c3cnc4[nH]ccc4c3N[C@@H]3CCCN(C(=O)CC#N)C3)n2)C1 (some centres unmarked) , what IC50 is on record?
## Output 10 to 100 nM

## Input Fill blank: measured IC50 of the compound `Cc1cnc2nc1Nc1ccccc1CCNC(=O)c1ccc(cc1F)-c1cnc(F)c(c1)N2` is ____.
## Output 1000 to 10000 nM

## Input Given the compound `CC(C)(CO)Nc1nc(Nc2ccc3c(c2)NC[C@H](O)CO3)ncc1C(N)=O` , what is its reported IC50?
## Output < 10 nM
